Assay Details: Total clearance in CD-1 mouse at […], iv measured within 6 hrs by LC-MS/MS analysis
Assay type: ADME, organism-based
Measurement Parameters: in vivo
Value Kind: clearance at 6 h (mL/min/kg)
The reply should be a number in mL/min/kg, with the unit left off.

For the compound shown here, `O=C(NO)c1ccc(Cn2nnnc2-c2cccs2)cc1` , give the reported clearance at 6 h. 172

For the compound shown here, `Cn1c(Sc2ccc(C(=O)NO)cc2)nnc1-c1cccs1` , give the reported clearance at 6 h. 182

* * *

Tgt: Cytochrome P450 3A4 (Homo sapiens)
Sequence (P08684 whole entry): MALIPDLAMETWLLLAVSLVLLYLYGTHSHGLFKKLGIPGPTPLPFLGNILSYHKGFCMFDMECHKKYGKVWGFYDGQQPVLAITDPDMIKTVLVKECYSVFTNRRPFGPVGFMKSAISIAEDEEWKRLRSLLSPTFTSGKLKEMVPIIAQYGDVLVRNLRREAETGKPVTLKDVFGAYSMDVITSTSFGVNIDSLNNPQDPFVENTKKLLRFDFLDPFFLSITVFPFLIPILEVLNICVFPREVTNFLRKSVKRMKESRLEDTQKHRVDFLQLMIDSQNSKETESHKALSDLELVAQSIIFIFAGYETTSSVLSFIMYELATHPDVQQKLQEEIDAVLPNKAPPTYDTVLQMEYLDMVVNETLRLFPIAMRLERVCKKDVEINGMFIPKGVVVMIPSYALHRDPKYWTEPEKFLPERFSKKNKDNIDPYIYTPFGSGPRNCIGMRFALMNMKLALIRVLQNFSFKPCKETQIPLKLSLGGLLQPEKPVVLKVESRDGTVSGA
Value Kind: pIC50
The quantity pIC50 is defined as the negative base-10 logarithm of the molar concentration.

Please give the measured pIC50 for this compound: `Cn1c(Sc2ccc(C(=O)NO)cc2)nnc1-c1cccs1` 4.58

* * *

Record form. Attribute: remaining at 4 h, 100 µM. Fill in for each entry.
Assay Details: Stability in rat plasma assessed as parent compound remaining at 100 uM after 4 hrs by LC-MS/MS analysis
Type: ADME, cell-free
Measurement Parameters: read-out: Stability
Write the answer as a number in %, unit excluded.

Param item = `Cn1c(Sc2c(F)cc(C(=O)NO)cc2F)nnc1-c1cccs1` ; retrieve measured remaining at 4 h, 100 µM. 87

I would be grateful if you could share the reported remaining at 4 h, 100 µM for `Cn1c(Sc2c(F)cc(C(=O)NO)cc2F)nnc1-c1cccc(CN2CCCCCC2)c1` . 85

Which measured remaining at 4 h, 100 µM value corresponds to `Cn1c(Sc2c(F)cc(C(=O)NO)cc2F)nnc1-c1ncccc1F` ? 100

If you can, please state the reported remaining at 4 h, 100 µM value of `O=C(NO)c1cc(F)c(Cn2nnc(-c3ccccn3)n2)c(F)c1` . 87

Requested read-out: remaining at 4 h, 100 µM. Entry: `O=C(NO)c1cc(F)c(Cc2nnc(-c3ccncc3)s2)c(F)c1` 84

Reported remaining at 4 h, 100 µM, molecule `CCCCN(Cc1ccc(C(=O)NO)cc1)C(=O)Nc1ccccc1` : ____ 40

If you can, please state the reported remaining at 4 h, 100 µM value of `O=C(NO)c1ccc(Cn2nnnc2-c2cccs2)cc1` . 62

remaining at 4 h, 100 µM for `O=C(NO)c1ccc(CC(=O)N(CCO)c2ccccc2)cc1` ? 45

What does the record list as remaining at 4 h, 100 µM for `Cn1c(Sc2c(F)cc(C(=O)NO)cc2F)nnc1-c1ccc(CN2CCCCC2)cc1` ? 75

Reported remaining at 4 h, 100 µM for `O=C(NO)c1cnc(NC2(c3ccccc3)CC2)nc1` : what is it? 12

# remaining at 4 h, 100 µM lookup, item `O=C(CCCCCCNC(=O)c1cnc(N(c2ccccc2)c2ccccc2)nc1)NO` 91

Need remaining at 4 h, 100 µM, item `Nc1ccc(-c2nnn(Cc3c(F)cc(C(=O)NO)cc3F)n2)cc1` 77

Bench note: what remaining at 4 h, 100 µM did `O=C(NO)c1cc(F)c(Cn2nnc(-c3ncccn3)n2)c(F)c1` show? 78

I have this molecule here, `CCN(CC)Cc1ccc2cc(COC(=O)Nc3ccc(C(=O)NO)cc3)ccc2c1` , and I need its recorded remaining at 4 h, 100 µM. 72

Item under review: `CN1CCc2c(c3ccccc3n2Cc2ccc(C(=O)NO)cc2)C1` . Reported remaining at 4 h, 100 µM? 38

For `Cn1c(Sc2c(F)cc(C(=O)NO)cc2F)nnc1-c1cccnn1` , what is its reported remaining at 4 h, 100 µM? 98

Tell me the measured remaining at 4 h, 100 µM of `COc1ccc(CC(=O)N[C@@H](Cc2cscn2)C(=O)Nc2ccc(C(=O)NO)cc2)cc1OC` , please. 18

Fill blank: measured remaining at 4 h, 100 µM of the molecule `Cn1c(Sc2ccc(C(=O)NO)cc2)nnc1-c1cccs1` is ____. 86

Please look up its remaining at 4 h, 100 µM: `O=C(NO)c1ccc(Cn2nnc(-c3ncccn3)n2)cc1` 99

Fill in the blank: the reported remaining at 4 h, 100 µM of `O=C(NO)c1cc(F)c(Cn2nnc(-c3ccco3)n2)c(F)c1` is ____. 100

What measured remaining at 4 h, 100 µM goes with `Cc1cc(-c2nnc(Sc3c(F)cc(C(=O)NO)cc3F)n2C)nn1C` ? 80
